# Tested on: CDK4-cyclinD1
# conditionDetails: concentration: 1 μM, replicates: in singlicate; n = 1;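 also: KINOMEscan kinase panel screen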
metric: %Inh (%)
Respond numerically; units are % and should not be typed.

Notebook entry, CDK4-cyclinD1 assay: %Inh of "CCn1c(-c2nonc2N)nc2c(-c3ccccc3)ncc(OCCCN)c21.O=C(O)C(F)(F)F.O=C(O)C(F)(F)F" = ?
0

Item "Cc1ccc(Nc2ccnc(Nc3ccc(C)c(F)c3)n2)cc1O.Cl" with CDK4-cyclinD1 - %Inh?
0

So what %Inh did "O=C(Nc1n[nH]c2nc(-c3cccc(O)c3)ccc12)C1CC1" get with CDK4-cyclinD1?
20

Form field: %Inh recorded for "COC(=O)Nc1nc2ccc(Oc3ccc(NC(=O)Nc4cc(C(F)(F)F)ccc4F)cc3)cc2[nH]1.Cl" with CDK4-cyclinD1 (enter value)
0

Form entry - test system: CDK4-cyclinD1; read-out: %Inh; molecule: "Fc1cc(Cl)ccc1Nc1ccnc2cc(-c3ccc(CN4CCSCC4)o3)ccc12"
35

Recall the recorded %Inh for "COc1cccc(-c2nc(-c3ccccc3)[nH]c2-c2ccncc2)c1" with CDK4-cyclinD1 and state it.
0

Short answer please: %Inh, CDK4-cyclinD1, entry "Cc1ccc(NC(=O)c2ccc(Cl)c(Cl)c2)cc1-c1ccc(C(=O)Nc2ccncc2)cc1"
0

Form: Entry = "Cl.N#CCc1ccc(Nc2nccc(Nc3ccc(Oc4ccccc4)cc3)n2)cc1" | System = CDK4-cyclinD1 | %Inh = ____
0

###

# Tested on: MLK1
# Construct: gene MAP3K9
# conditionDetails: concentration: 1 μM, replicates: in singlicate; n = 1
metric: %Inh (%)
Response body: numeric value in %, unit text excluded.

Reported %Inh for Cl.N#CCc1ccc(Nc2nccc(Nc3ccc(Oc4ccccc4)cc3)n2)cc1 [GW639905] : what is it?
0

Data request, read-out %Inh, for CCn1cnc2c(NCc3ccccc3)ncnc21 [SKF-96418]
0

Need %Inh of COc1cc(Nc2ccnc3cc(-c4ccncc4)ccc23)cc(OC)c1OC.Cl [GW494610] , thanks.
2

I would be grateful if you could share the reported %Inh for Nc1ncnc2scc(-c3ccc(NC(=O)Cc4cc(F)ccc4F)cc3)c12.O=C(O)C(F)(F)F [SB-731254-M] .
0

Entry Nc1ncc(-c2cn[nH]c2)c2scc(-c3ccc4c(c3)CCN4C(=O)Cc3ccccc3)c12 [GSK2593067] : reported %Inh = ?
16

Entry Cl.O=C(Nc1ccc(Oc2ccc3[nH]c(NC(=O)c4ccco4)nc3c2)cc1)Nc1cc(C(F)(F)F)ccc1F [GW683134] : reported %Inh = ?
28

Can you look up the measured %Inh of "CCNC(=O)/C=C/c1n[nH]c2cc(Sc3ccccc3C(=O)NC)ccc12" for me?
7

Using the record for "N#CC1(c2cccc(C(=O)Nc3cccc(Oc4ccc5nc(NC(=O)C6CC6)sc5n4)c3)c2)CC1" , report its %Inh.
1

What does the data say about its %Inh? Entry: COc1ccc(C)c(Nc2ccnc(Nc3ccc(-c4cnc[nH]4)cc3)n2)c1.Cl [GW784041]
30

Tell me the measured %Inh of CN(c1ccc2c(c1)nc(NCc1ccccc1)n2C)c1ccnc(Nc2ccc(CS(C)(=O)=O)cc2)n1.Cl [GW811603] , please.
12

// %Inh lookup, key: c1ccc(Oc2ccc(Nc3ccnc4cc(-c5ccc(CN6CCCCC6)o5)ccc34)cc2)nc1 [GW567143]
2

If you can, please state the reported %Inh value of Cc1cc(-c2ccnc(Nc3cccc(C#N)c3)n2)cc(C)c1O [GSK1440913] .
66

Give the measured %Inh of "CN(c1ccc(F)c(NC(=O)c2cccc(OC(C)(C)C#N)c2Cl)c1)c1ccc2nc(NC(=O)C3CC3)sc2n1" .
0

Please report the recorded %Inh for Cc1ccc(O)cc1Nc1ccnc2cc(-c3ccc(CN4CCCCC4)o3)ccc12 [GW557777] .
2

Fill in: %Inh of COc1ccc(NC(=O)c2ccoc2)cc1-c1ccc(C(=O)NCC2CC2)cc1 [GW810437] is ___
0

Consider the compound shown here: Cc1ccc(Nc2ccnc(Nc3ccc(C)c(F)c3)n2)cc1O.Cl [GW582868] What is its recorded %Inh?
60

Looking for the measured %Inh of COc1cccc(C2=C(Nc3cccc(O)c3)C(=O)NC2=O)c1 [SB-390771] , can you help?
21

Reported %Inh for Nc1ncc(-c2ccc3nccc(-c4ccncc4)c3c2)cc1S(=O)(=O)N1CCCCC1 [GSK1693850] : what is it?
0

Could you share which %Inh value was measured for CC(C)c1nc(-c2cccc(NS(=O)(=O)c3c(F)cccc3F)c2)c(-c2ccnc(Nc3ccc(N4CCOCC4)nc3)n2)s1.Cl [GSK1723980] ?
89

# lookup: %Inh of CCOc1nccc(-c2c(-c3ccc(F)cc3)ncn2C2CCNCC2)n1 [SB-249175]
3

Any idea what its %Inh is? The compound is Cl.Cl.NCC(NC(=O)c1cc(-c2cccnc2)c(-c2ccnc3[nH]ccc23)s1)c1ccccc1 (centres unmarked) [GSK1323434]
0

Would you mind telling me what %Inh value was observed for Cc1ccc(NC(=O)c2ccnc(N3CCCCC3)c2)cc1-c1ccc(C(=O)NCC2CC2)cc1 [GW775610] ?
0

// returns reported %Inh for input CN(c1ccc(NC(=O)N2CCN(CCCN3CCOCC3)CC2)cc1)c1ccnc(Nc2ccc(CS(C)(=O)=O)cc2)n1.Cl [GW830899]
13

Given the compound Cc1ccc(O)cc1Nc1ccnc2ccc(C(C)(C)C)cc12 [GW856805] , what is its reported %Inh?
11

I'd like to know its %Inh. The compound in question is O=C(Nc1n[nH]c2nc(-c3ccccc3O)ccc12)C1CC1 [SB-711880]
0

Given the compound NCCC(NC(=O)c1cc(Br)c(-c2ccnc3[nH]ccc23)s1)c1ccccc1.O=C(O)C(F)(F)F.O=C(O)C(F)(F)F (centres unmarked) [GSK1307810] , what is its reported %Inh?
0

Name the reported %Inh value associated with the compound Cn1cc(-c2ccc3c(c2)CCN3C(=O)Cc2cc(F)cc(C(F)(F)F)c2)c2c(N)ncnc21 [GSK2635225]
78

Give its %Inh value. Item: Cc1ccccc1CC(=O)N1CCc2cc(-c3cn(C)c4ncnc(N)c34)ccc21 [GSK2603346]
7

Which measured %Inh value corresponds to CN(c1ccc(NC(=O)Nc2cccc(Cl)c2)cc1)c1ccnc(N)n1.Cl [GW830707] ?
0
